# Experimental details: reversal of MRP1-mediated doxorubicin resistance, pilot screen, H69AR cells, doxorubicin co-treatment (AID 601)
# Condition: H69AR cells + 2 uM doxorubicin, CellTiter-Glo, 72 h; at 10 µM; active compounds read high
Endpoint name: differential viability (reversal) (%)
The reply should be a number in %, with the unit left off.

The value of differential viability (reversal) measured for the molecule COC(=O)c1ccccc1NC(=O)Cn1ccnc1 turned out to be -3.07

Record summary for CCOC(=O)[C@H](CCc1ccccc1)N[C@@H](C)C(=O)N1CCC[C@H]1C(=O)O : reported differential viability (reversal) = -8.79

Entry CCc1nnc(NC(=O)c2cc3ccccc3oc2=O)s1 ; differential viability (reversal) = -4.11

Entry CC(C)OC(=O)c1cc(=O)[nH]c2ccccc12 , differential viability (reversal) reported as 21.9

Entry C/C=C/Cn1c(Br)nc2c1c(=O)[nH]c(=O)n2C , differential viability (reversal) reported as 7.23

For this molecule ( Cc1nc2ccc(NC(=O)N3CCSCC3)cc2s1 ), measured differential viability (reversal) is -5.83

Notebook: CCC(=O)Nc1ccc2nc(SCC(=O)N3CCCC3)sc2c1 , differential viability (reversal) read as 5.62

----------
Entries and their growth inhibition values follow.
# Experimental details: OD615 S. cerevisiae growth inhibition, permissive medium, pilot counter-assay, permissive growth control for S. cerevisiae lifespan shortening project (AID 705)
# Condition: OD615, 24 h, at 10 µM, active compounds read high
Activity calls are given as the source filed them.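 How the source made its calls: active means growth inhibition above 25% in both replicates, a cutoff set 3 SD above the mean; inconclusive means above 25% in only one replicate; inactive means the rest.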

Some molecules with recorded growth inhibition:
CCCCCn1c(=O)[nH]c2cc(C(=O)NCCCN(CC)CC)ccc2c1=O :: -20.8% (inactive)
CCOC(=O)Cc1csc(SCn2nnc3ccccc3c2=O)n1 :: -8.4% (inactive)
O=C(NCCc1ccc(S(=O)(=O)N2CCCC2)cc1)c1cccs1 :: 2.67% (inactive)
O=C(c1cnn2ccccc12)N(Cc1ccco1)C1CCCC1 :: -12% (inactive)
c1coc(Cn2c(SCc3nc4ccccc4[nH]3)nnc2-c2cccs2)c1 :: 0.98% (inactive)

The measured growth inhibition associated with CCSC1=N/C(=C\c2ccc(C(=O)O)cc2)C(=O)S1 reads -3.9% (inactive)

Quick note, growth inhibition for Cc1cc(NC(=O)CC(CN(C)S(=O)(=O)c2ccccc2)c2ccccc2)no1 (configuration not stated) landed at -7.79% (inactive)

# growth inhibition (molecule: O=C(Cc1c(C(=O)O)[nH]c2ccccc12)Nc1ccc2c(c1)OCO2 ) is -7.96% (inactive)

----------
Below, each of the molecules is paired with its reported RAM network inhibition value.
# Experimental details: RAM signaling pathway blockade in yeast – S. cerevisiae, Pdr1DBD-CYC8 efflux-inhibited sensitized strain, primary screen (AID 1298);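 note: 0% = DMSO untreated cells without growth and 100% = 10 µM 1-NA-PP1 full growth; higher means more yeast growth rescued from 5-FOA killing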
# Condition: S. cerevisiae cbk1-as DSE1-URA3 strain, 5-FOA growth OD615, 2 d; at 50 µM; active compounds read high
The figure you give is taken to be in %; do not add the unit.

// solved cases for RAM network inhibition follow
COc1ccc(C2N3CC4(C)CN2CC(C)(C3)C4)cc1OC (centres undefined) :: 0.83
Cc1cccc(N(CC(=O)Nc2c(C)n(C)n(-c3ccccc3)c2=O)S(C)(=O)=O)c1 :: 1.64
O=C(C1CC1)N1CCc2cc(Br)cc(S(=O)(=O)N3CCCCCC3)c21 :: 5.99
Cc1ccc(S(=O)(=O)N2CCN(C(=O)CSc3nnc(C)s3)C2)cc1 :: -0.22
CCCN1CCN(C(=O)C2CCN(S(=O)(=O)c3ccc4c(c3)oc(=O)n4C)CC2)CC1 :: -1.87
Cc1ccc(C(=O)c2cn[nH]c2-c2cc(Cl)ccc2O)cc1 :: -1.14
Cc1ccc2oc(=O)c3cnn(CC(=O)N(CCCN4CCOCC4)Cc4ccco4)c3c2c1 :: 3.73
CCOc1ccccc1C(=O)NC1CCN(Cc2nnnn2C2CCCC2)CC1 :: 1.76
Nc1nc2n(n1)C(c1ccc(Cl)cc1)CC(c1ccc(F)cc1)N2 (centres undefined) :: 5.91
CCCOc1ccc(/C(O)=C2/C(=O)C(=O)N(CCN(C)C)C2c2ccco2)cc1 (centres undefined) :: -1.54

Quick note, RAM network inhibition for Cc1ccc(NC(=O)CSC2=C(C#N)C(c3ccc4c(c3)OCO4)C3=C(CCCC3=O)N2)c(C)c1 (centres undefined) landed at 5.06

Kindly note the recorded RAM network inhibition for COc1ccc(OCC(=O)OCCN2C(=O)c3ccccc3C2=O)cc1 , which is 8.21

Recorded result, CCS(=O)(=O)C(=C(Nc1ccc(OC)cc1)Nc1ccc(OC)cc1)S(=O)(=O)CC , RAM network inhibition: 7.21

For this molecule ( COCCOC(=O)c1c(C)oc2ccc(OC(=O)c3cccs3)cc12 ), measured RAM network inhibition is 6.79

RAM network inhibition recorded for this molecule, Cc1ccc(N2CC(C(=O)OCC(=O)C(C)(C)C)CC2=O)cc1 (centres undefined) , is 3.64

----------
# Experimental details: HUVEC growth inhibition – cell-based, human, primary screen (AID 575);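 note: 100% = median of untreated cell wells with 0.1% DMSO on each plate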
# Condition: HUVEC proliferation, CellTiter-Glo luminescence, 72 h; at 10 µM; active compounds read low
The source made the active and inactive calls.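 Rule for the calls: active = viability at or below 30% in both replicate assays; inconclusive = viability at or below 30% in just one of the two assays; inactive = the rest.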
Measured viability, listed per entry for reference.

These solved cases illustrate the format of a correct answer.
CCN(CC)S(=O)(=O)N1CCC(C(=O)NC2CCCc3ccccc32)CC1 (stereo not given) :: 108% (inactive)
Cc1ccc(-n2ncc3c(=O)n(CC(=O)NC4CCCCC4)cnc32)cc1C :: 92.7% (inactive)
COc1ccc(C(=O)OC(COc2ccccc2)Cn2ccnc2)cc1 (stereo not given) :: 79.6% (inactive)
O=C(Nc1ccc(N2CCN(Cc3ccccc3Cl)CC2)cc1)c1cccnc1 :: 117% (inactive)

Now let's try a different one.
viability in this record for COC(=O)CCc1c(C)c(C#N)c2nc3ccccc3n2c1N1CCCC1 : 98.1% (inactive)

----------
# Experimental details: Restrictive medium S. cerevisiae growth inhibition, OD615, pilot screen of yeast lifespan reduction project, restrictive growth control (AID 706);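 note: modified DeaD lifespan yeast strain shifted to restrictive glucose medium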
# Condition: OD615, 48 h, at 10 µM
Calls of active or inactive are those of the source.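 The calls were made as follows: active = growth inhibition above a set limit, 3 SD over mean compound inhibition, in both replicates (cut at about 43% in these data); inconclusive = above the limit in only one replicate; inactive = at or below the limit in both replicates.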
Return exactly one item of active, inactive

CCOc1ccc(-n2c(SCC(N)=O)nc3c(c2=O)SCC3)cc1 :: inactive
Cc1ccc(N=Cc2c(O)n(C)c(=O)n(C)c2=O)nc1 :: inactive
Cn1c(Cn2c(=O)sc3ccccc32)nnc1SCC(=O)N1CCOCC1 :: inactive
CCCCCCn1c(SCC(=O)c2ccccc2)nc2c1c(=O)[nH]c(=O)n2C :: active
CCCCCc1nnc(NC(=O)OCCC)s1 :: inactive

For this molecule, state the assay outcome: Cc1ccc2oc3c(c(=O)c2c1)C(c1cccc(O)c1)N(c1ccccn1)C3=O (stereo not drawn) inactive

Just curious, what result did Cc1ccccc1-c1ccc(Nc2ccc(N3CCOCC3)cc2)nn1 get here? inactive

Query: recorded result category for CC1(C)CC(=O)c2sc(NC(=O)C3CC3)nc2C1 in this test inactive

What outcome does the record of this test show for O=C(O)CCCC(=O)Nc1ccc(Cl)c(Cl)c1 ? inactive

Assay outcome for CC(=O)C(C)Oc1ccc2c3c(c(=O)oc2c1)CCCC3 (stereo not drawn) : what was it? inactive

Just curious, what result did COc1ccc(NC(=O)C2CCCNC2)cc1OCC(C)C (stereo not drawn) get here? inactive

Call for entry COCCNC(=O)c1ccc2c(=O)n(CCOC)c(=O)[nH]c2c1 : inactive

Please share the test call associated with Cn1cc(S(=O)(=O)CC(=O)Nc2ccc3c(c2)OCCO3)c2ccccc21 . inactive

Just curious, what result did Cc1ccc(-c2nc(=S)c3c(n2Cc2ccco2)CC(C)(C)OC3)cc1 get here? inactive

Could you kindly confirm the outcome this assay logged for O=C(NCc1nc2ccccc2[nH]1)c1ccc(S(=O)(=O)N2CCOCC2)cc1 ? inactive

Hi, do you know how O=S(=O)(c1cccc(-c2nnc(-c3cccnc3)o2)c1)N1CCCCC1 came out in this test? inactive

Could you check what this test reported for CCn1cc(C2=NC(C(C)C)CO2)c2ccccc21 (stereo not drawn) ? inactive

Tell me the assay call for CCc1c(C)sc(NC(=O)C2CCCCC2C(=O)O)c1C(N)=O (stereo not drawn) please. inactive

----------
Listed here: items and their measured RAM network inhibition.
# Experimental details: RAM signaling pathway blockade in yeast – S. cerevisiae, Pdr1DBD-CYC8 efflux-inhibited sensitized strain, primary screen (AID 1298);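 note: 0% = DMSO untreated cells without growth and 100% = 10 µM 1-NA-PP1 full growth; higher means more yeast growth rescued from 5-FOA killing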
# Condition: S. cerevisiae cbk1-as DSE1-URA3 strain, 5-FOA growth OD615, 2 d; at 50 µM; active compounds read high
Active and inactive are the calls of the source.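 The calls were made as follows: active = RAM network inhibition above 8.4% in each of two replicates, 3 SD over the compound average; inconclusive = above 8.4% inhibition in only one replicate; inactive = 8.4% inhibition or less in each replicate.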

CCOC(=O)Cn1c(C)cc(=O)c2cccc(C)c21 :: 1.15% (inactive)
O=C(COc1ccc(S(=O)(=O)NC2CCCCC2)cc1)N1CCN(c2ccc(F)cc2)CC1 :: 3.14% (inactive)
Cc1ccc2c(CC(=O)Nc3nc(C)cs3)coc2c1 :: 0.88% (inactive)
CC(NC(=O)Cn1cc2c(n1)CCCCC2)c1ccccc1 (configuration not stated) :: 0.87% (inactive)
COc1ccccc1-c1c(C#N)c(SCC(=O)N2CCCC2)nc(C)c1C(N)=O :: 1.04% (inactive)
COc1ccc(C(=O)OCCN2C(=O)c3ccccc3C2=O)cc1OC :: 0.93% (inactive)
O=C(Cn1c(NCCCO)nc2ccccc21)c1cccs1 :: 0.62% (inactive)
Oc1c(CN2CCc3ccccc3C2)cc(Cl)c2cccnc12 :: -2.41% (inactive)

// RAM network inhibition lookup, molecule = CCCCCn1c(CNC(=O)CC)nc2ccccc21 , result: 4.9% (inactive)

RAM network inhibition reading for NC(=O)CSc1nnc(Cn2c(=O)sc3ccccc32)n1CCc1ccccc1 : 4.54% (inactive)

RAM network inhibition reported for this molecule CCn1c(=O)cc(C(=O)OC)sc1=Nc1ccc(F)c(F)c1 : 7.21% (inactive)

Given item O=C(CN1C(=O)c2cccc3cccc1c23)N1CCN(c2ccc(F)cc2)CC1 , the value recorded as its RAM network inhibition is 8.63% (inactive)

Field RAM network inhibition (entry COc1ccc(C(=O)Nc2cc(=O)n(C)c(=O)n2C)cc1OC ) reads -1.14% (inactive)

Noted for CCOC(=O)c1sc(NC(=O)C2CC2)nc1C : its RAM network inhibition reads -1.46% (inactive)
